# assay-name: solvent given as SMILES
# experimental-setup: in ClCCl
Given measured absorption maximum, output class 1 if it is greater than or equal to 400 nm and class 0 if not.

The following compounds have reported results that may help.
{"compound": "CN(C)c1ccc(C2=Nc3sc4cc(Cl)ccc4[n+]3[B-](F)(F)O2)cc1", "group-label": "class 1"}
{"compound": "Cc1cc(C)c(C2=C3C=C(c4ccc(C(C)(C)C)cc4)C(c4ccc(C(C)(C)C)cc4)=[N+]3[B-](F)(F)n3c2cc(-c2ccc(C(C)(C)C)cc2)c3-c2ccc(C(C)(C)C)cc2)c(C)c1", "group-label": "class 1"}
{"compound": "CN(C)c1ccc2cc3c(cc2c1)OCCN=C3", "group-label": "class 1"}
{"compound": "COc1ccc2c(c1)CCC1=C(C#Cc3cc4ccccc4c4ccccc34)O[B-](F)(F)[O+]=C12", "group-label": "class 1"}
{"compound": "CCCCN(CCCC)c1ccc2c#cc3cc4c#cc5ccc(C(F)(F)F)cc5c#cc#cc5cc(N(CCCC)CCCC)ccc5c#cc4cc3c#cc3ccc(C(F)(F)F)cc3c#cc#cc2c1", "group-label": "class 1"}

[Q] Is absorption maximum at least 400 nm? Consider "COc1cc2c(cc1OC)C1=C[C@H](c3ccc(Cl)cc3)C3(C(C#N)=C(C#N)N1CC2)c1cc(Cl)ccc1-c1ccc(Cl)cc13"
[A] class 0

[Q] Evaluate "CCCCCCCCCCCCN1C(=O)c2c(c3ccc4cc(-c5ccc(C)cc5)c(OC)cc4c3c3c2ccc2cc(-c4ccc(C)cc4)c(OC)cc23)C1=O" : absorption maximum at minimum 400 nm?
[A] class 1

[Q] Does absorption maximum meet or surpass 400 nm for "CC1(C)c2ccccc2-c2sc3ccccc3c21" ?
[A] class 0

[Q] Quick check: does "CCN(CC)c1ccc2cc(/C=C/C(=C(C#N)C#N)c3ccc(N(c4ccccc4)c4ccccc4)cc3)c(=O)oc2c1" have absorption maximum greater than or equal to 400 nm?
[A] class 1

[Q] For this compound, is measured absorption maximum 400 nm or higher? CCOC(=O)c1ccc(C2=Cc3ccccc3P2(=O)c2ccccc2)cc1 (configuration not stated)
[A] class 0

[Q] Test whether the compound "CCCCCC(=O)c1c2c(c(C(=O)CCCCC)c3c1OC1(CCCC1)O3)OC1(CCCC1)O2" records absorption maximum of 400 nm or higher.
[A] class 1

[Q] Does the reported absorption maximum for "CCCCn1c(-c2ccc(-c3nnc(-c4cccs4)o3)cc2)nc(-c2ccccc2)c1-c1ccccc1" fall at or above the 400 nm mark?
[A] class 0

[Q] Is reported absorption maximum greater than or equal to 400 nm here: "CN(C)c1ncc2nc(C#N)n(Cc3ccccc3)c2n1"
[A] class 0

[Q] Decide: absorption maximum of "O=C(c1ccncc1)c1ccc(-n2c3ccccc3c3cc(-n4c5ccccc5c5ccccc54)ccc32)cc1" >= 400 nm?
[A] class 0

[Q] Is absorption maximum for "c1ccc(-n2c(-c3ccc(-c4ccc(-c5ccc(-c6nc7c8ccccc8c8ccccc8c7n6-c6ccccc6)cc5)cc4)cc3)nc3ccccc32)cc1" at or above 400 nm?
[A] class 0

[Q] absorption maximum >= 400 nm for "CN(C)c1ccc(C2=Nc3sc4c(F)c(F)c(F)c(F)c4[n+]3[B-](F)(F)O2)cc1" ?
[A] class 1

[Q] Determine whether measured absorption maximum meets or exceeds 400 nm for "Cc1cc(C(F)(F)F)nc2c1ccc1nc(-c3ccc(Cl)cc3)cn12"
[A] class 0

Where do the numbers come from? From the Deep4Chem optical property database.
